FYI, the data here is from PubChem BioAssay.

EXPERIMENT NOTES: adipocyte viability effects, profiling panel, cell-based, 3T3-L1 adipocytes, calcein-AM fluorescence, 48 h, basal (AID 1163); also: test concentration not given here
CONDITION CONTEXT: 3T3-L1 adipocytes viability, higher = more signal
Assign labels as follows, please: Satisfied for z-score below 1; Not satisfied for z-score equal to or exceeding 1.

# MOL SMILES, DISCRETE LABEL
rows = [
    ("NCCCCCCNC(=O)[C@@H]1C[C@@H]2C(=O)N[C@@H](Cc3ccccc3)C(=O)N2[C@@H]1c1ccc(O)cc1", "Not satisfied"),
    ("COc1ccc(CCNC(=O)[C@@]2(Sc3ccc(C)cc3)CC(=O)N(Cc3ccccc3)[C@@H]2c2ccc(CO)cc2I)cc1", "Not satisfied"),
    ("C=C(/C(=C/C[C@H](OC(=O)c1ccncc1)c1cccc(OCCO)c1)c1cc(C(=O)OC)ccc1OC)C(C)C", "Not satisfied"),
    ("O=C(O)[C@H]1C[C@H]2C(=O)N[C@@H](Cc3ccccc3)C(=O)N2[C@H]1c1ccc(O)cc1", "Satisfied"),
    ("CCCCC(=C=CC[C@H](O)c1cccc(OCCO)c1)CCO", "Not satisfied"),
    ("C[N+](C)(C)CCCC[C@@H]1NC(=O)[C@@H]2C[C@H](C(=O)NCCCCCNC(=O)CS)[C@H](c3ccc(O)cc3)N2C1=O", "Not satisfied"),
    ("C=C(COC)/C(=C/C[C@H](OC(C)=O)c1ccc(CO)o1)c1cnc2ccccc2c1", "Satisfied"),
    ("CC(C)NC(=O)[C@@H]1c2ccccc2C(=O)N(Cc2cc(F)cc(C(F)(F)F)c2)[C@H]1c1ccc(CO)cc1", "Not satisfied"),
]

* * *

System: glycogen synthase kinase-3 (GSK3A per assay name; protocol says GSK3B)
EXPERIMENT NOTES: GSK3 binders on small-molecule microarrays, primary screen, biochemical, small-molecule microarray, 635 nm fluorescence, GSK3A (AID 1103); also: the record names both GSK3A and GSK3B
CONDITION CONTEXT: small-molecule microarray binding, fluorescence 635 nm; higher = more signal

# MOLECULE, composite z-score
measured = [
    ("COCCCNC(=O)[C@@]1(CCS(=O)(=O)c2ccccc2)N=C(c2ccc(OCCCO)cc2)O[C@H]1c1ccccc1CN=[N+]=[N-]", 1.31),
    ("CC(CO)N1C(=O)[C@@H]2C3C(=O)OCCC/C=C\\[C@H]3OC23C=CCN(Cc2ccccc2)C(=O)[C@@H]13 (some centres not stated)", -0.236),
    ("COc1ccc([Si](C)(C)[C@H]2[C@H](CC(=O)N(CCO)Cc3ccccc3)O[C@@]3(C(=O)N(Cc4cccc(N5C(=O)COc6ccccc65)c4)c4ccccc43)[C@@H]2C)cc1", 0.183),
    ("C=CCC(OC(C)=O)[C@@H]1[C@@H](N(Cc2cccc3ccccc23)C(=O)c2cccc3ccccc23)c2cc(OCCCO)ccc2N1C(=O)Cc1ccc(OC)cc1 (some centres not stated)", 0.311),
    ("CCCCC(=C=CC[C@H](O)c1cccc(OCCO)c1)CCO", -0.558),
    ("C=CCNC(=O)[C@H]1[C@@H]2C(=O)O[C@@H](c3ccccc3)[C@@H](c3ccccc3)N2[C@@H](c2ccc(OCCO)cc2)[C@]12C(=O)Nc1ccc(C#CCCO)cc12", -0.145),
    ("O=C(O)[C@H]1C[C@H]2C(=O)N[C@@H](Cc3ccccc3)C(=O)N2[C@H]1c1ccc(O)cc1", 0.661),
]

* * *

MEASURED TARGET: Streptavidin (Streptomyces avidinii)
EXPERIMENT NOTES: streptavidin binders on small-molecule microarray, primary screen, artefact control for SMM compound annotation, biophysical, 635/667 nm fluorescence (AID 1147);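 also: signal reflects streptavidin binding to arrayed compounds as a control protein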
CONDITION CONTEXT: streptavidin binding, higher = more signal
Listed here are compounds together with their documented composite z-score.

# MOL SMILES, MEASURED TARGET, composite z-score
data = [
    ("C=CCNC(=O)[C@@H]1[C@H]2C(=O)O[C@H](c3ccccc3)[C@H](c3ccccc3)N2[C@H](c2ccc(O)cc2)[C@@]12C(=O)Nc1ccc(C#Cc3ccc(OC)cc3)cc12", "Streptavidin (Streptomyces avidinii)", 1.16),
    ("COc1ccc([Si](C)(C)[C@@H]2[C@@H](CC(=O)N3CCC[C@H]3CO)O[C@]3(C(=O)N(Cc4ccc(I)cc4)c4ccccc43)[C@H]2C)cc1", "Streptavidin (Streptomyces avidinii)", 0.983),
    ("O=C(NO)[C@]1(Cc2ccccc2)N=C(c2ccc(OCCCO)cc2)O[C@@H]1c1ccccc1", "Streptavidin (Streptomyces avidinii)", -0.585),
    ("O=C(O)[C@H]1C[C@H]2C(=O)NCC(=O)N2[C@H]1c1cccc(OCCO)c1", "Streptavidin (Streptomyces avidinii)", 0.42),
    ("CC(C)N1C(=O)c2ccccc2[C@@H](C(=O)NCc2ccccc2)[C@@H]1c1ccc(CO)cc1", "Streptavidin (Streptomyces avidinii)", -1.17),
    ("CC(C)(C)OC(=O)CC[C@@]12N=C(c3ccc(OCCCO)cc3)O[C@@H]1c1ccccc1CN(Cc1ccccc1)C2=O", "Streptavidin (Streptomyces avidinii)", 0.197),
    ("COc1ccc([Si](C)(C)[C@H]2[C@H](CC(=O)N(CCO)Cc3ccccc3)O[C@@]3(C(=O)N(Cc4cccc(N5C(=O)COc6ccccc65)c4)c4ccccc43)[C@@H]2C)cc1", "Streptavidin (Streptomyces avidinii)", 0.224),
]

* * *

EXPERIMENT NOTES: S. cerevisiae growth modulation with rapamycin, primary screen, strain BY4716, OD600, 96 h (AID 1091); also: test concentration not given here
CONDITION CONTEXT: called active from +8 up or from −8 down
Calls of active or inactive are those of the source.
Labels: active, inactive

# COMPOUND, DISCRETE LABEL
measured = [
    ("CC(C)C[C@@H]1NC(=O)[C@H]2C[C@@H](C(=O)NCCCC[N+](C)(C)C)[C@@H](c3cccc(OCCO)c3)N2C1=O", "inactive"),
    ("C=CCC(OC(C)=O)[C@@H]1[C@@H](N(Cc2cccc3ccccc23)C(=O)c2cccc3ccccc23)c2cc(OCCCO)ccc2N1C(=O)Cc1ccc(OC)cc1 (stereo not given in full)", "inactive"),
    ("CCCCCCC#C[Si](O[C@H](c1ccccc1)c1cn(Cc2ccccc2)nn1)(C(C)C)C(C)C", "inactive"),
    ("COCCCNC(=O)[C@@]1(C)c2ccccc2C(=O)N(Cc2cc(F)cc(C(F)(F)F)c2)[C@H]1c1ccc(CO)cc1", "inactive"),
    ("CC(C)C(=C=CC[C@@H](O)c1ccc(CO)o1)CCO", "inactive"),
    ("C=CCN1C(=O)[C@]2(O[C@H](CCn3cc([C@H](O)c4ccccc4)nn3)[C@@H]([Si](C)(C)c3ccc(OC)cc3)[C@@H]2C)c2cc(N3CCOC3=O)ccc21", "inactive"),
    ("COCCOC(=O)N1C(=O)[C@@]2(c3cc(C#CC4(O)CCCCCC4)ccc31)[C@H](c1ccc(O)cc1)N1[C@H](c3ccccc3)[C@H](c3ccccc3)OC(=O)[C@H]1[C@@H]2C(N)=O", "inactive"),
    ("CC(C)N1CC=CC23O[C@@H]4/C=C\\CCCOC(=O)C4[C@H]2C(=O)N(CCCO)[C@@H]3C1=O (stereo not given in full)", "inactive"),
    ("Cc1ccc(S[C@]2(C(=O)NC3CC3)CC(=O)N(Cc3ccccc3C(F)(F)F)[C@@H]2c2ccc(CO)cc2I)cc1", "inactive"),
    ("O=C(NCC(F)(F)F)[C@@H]1c2ccccc2C(=O)N(C2Cc3ccccc3C2)[C@H]1c1ccc(CO)cc1", "inactive"),
    ("C=CC[C@@]1(C(=O)NCc2ccccc2)N=C(c2ccc(OCCCO)cc2)O[C@@H]1c1ccccc1", "active"),
    ("O=C1c2ccccc2C(=O)c2cc([C@H]3Oc4ccccc4S(=O)(=O)N4CCC[C@@H]34)ccc21", "inactive"),
    ("CC(C)NC(=O)[C@@H]1c2ccccc2C(=O)N(Cc2cc(F)cc(C(F)(F)F)c2)[C@H]1c1ccc(CO)cc1", "inactive"),
    ("C=C(COC)/C(=C/C[C@H](OC(C)=O)c1ccc(CO)o1)c1cnc2ccccc2c1", "inactive"),
    ("CC(C)C(CO)N1C(=O)[C@@H]2C3C(=O)OCCC/C=C\\[C@H]3OC23C=CCN(C(C)C)C(=O)[C@@H]13 (stereo not given in full)", "inactive"),
]

* * *

EXPERIMENT NOTES: HepG2 cell viability effects, profiling panel, calcein-AM fluorescence, 48 h, basal (AID 1164); also: test concentration not given here
CONDITION CONTEXT: higher = more signal

# MOLECULE, z-score
records = [
    ("CC(CO)N1C(=O)[C@@H]2C3C(=O)OCCC/C=C\\[C@H]3OC23C=CCN(Cc2ccccc2)C(=O)[C@@H]13 (stereo partly specified)", 0.547),
    ("COc1ccc([Si](C)(C)[C@H]2[C@H](CCO)O[C@@]3(C(=O)N(Cc4ccc(N5C(=O)c6cccc7cccc5c67)cc4)c4ccccc43)[C@@H]2C)cc1", -2.91),
    ("C=C(C(=O)CC[C@@H](OC(C)=O)c1ccccc1OCCO)C(C)C", -0.9),
    ("COCCCNC(=O)[C@@]1(C)c2ccccc2C(=O)N(Cc2cc(F)cc(C(F)(F)F)c2)[C@H]1c1ccc(CO)cc1", -0.176),
    ("CC(=O)OC(C/C=C\\B1OC(C)(C)C(C)(C)O1)c1ccccc1 (stereo unspecified)", 0.467),
    ("C=CCNC(=O)[C@@H]1[C@H]2C(=O)O[C@H](c3ccccc3)[C@H](c3ccccc3)N2[C@H](c2ccc(O)cc2)[C@@]12C(=O)Nc1ccccc12", 0.869),
    ("CO[C@H]1O[C@H](CO)[C@@H](OC(=O)CCc2ccccc2)[C@@H]2OC(=O)[C@H](Cc3ccccc3)C/C=C/C[C@@H](Cc3ccccc3)C(=O)O[C@@H]12", 0.62),
    ("COc1ccc([Si](C)(C)[C@H]2[C@H](CC(=O)N(CCO)Cc3ccccc3)O[C@@]3(C(=O)N(Cc4cccc(N5C(=O)COc6ccccc65)c4)c4ccccc43)[C@@H]2C)cc1", -0.647),
    ("C=C(CCCC)/C(=C/C[C@H](OC(=O)c1ccncc1)c1ccc(CO)o1)c1cnc2ccccc2c1", -0.76),
    ("CCCNC(=O)[C@@H]1c2ccccc2C(=O)N(Cc2cc(C(F)(F)F)cc(C(F)(F)F)c2)[C@H]1c1ccc(CO)cc1", 0.174),
    ("Cc1ccc(N2C(=O)c3ccccc3[C@](C)(C(=O)NC3CC3)[C@@H]2c2ccc(CO)cc2)nc1", 0.0786),
]
